// data source = patent US9708259B2

experimental.target: human M1 (Homo sapiens, UniProt P11229)
Construct: expressed in transfected cells; host or cells: CHO cells
run.description: M1 PAM assay (FLIPR intracellular calcium), human M1
Assay type: cell-based
The following compounds are listed with their measured pEC50 values.
A value of pEC50 is the negative decimal logarithm of a concentration given in moles per litre.

> print(dat)
                                   compound  metric  readout.number
1  O=C(N[C@H]1CCCC[C@@H]1O)c1cn(Cc2ccc(OC(F)(F)F)cc2)c2cccc(F)c12   pEC50            6.47
2  Cn1ncc2cc(Cn3cc(C(=O)N[C@H]4CCOC[C@@H]4O)c4c(F)cccc43)ccc21 (single isomer, unassigned)   pEC50            7.75
3  O=C(N[C@H]1CCCC[C@@H]1O)c1cn(Cc2ccc(F)c(F)c2)c2cccc(F)c12   pEC50            6.66

Which value of pEC50 has been reported for N#Cc1ccc(Cn2cc(C(=O)N[C@H]3CCOC[C@@H]3O)c3c(F)cccc32)cc1 (single isomer, unassigned) [Example 54] in the records?
7.16

Which value of pEC50 has been reported for `Cn1ncc2cc(Cn3cc(C(=O)NC4CCOCC4)c4c(F)ccc(F)c43)ccc21` in the records?
7.18

Which value of pEC50 has been reported for `Cn1ncc2cc(Cn3cc(C(=O)NC4CCOCC4)c4c(F)cccc43)ccc21` in the records?
6.66

Which value of pEC50 has been reported for `COc1ccc(Cn2cc(C(=O)N[C@H]3CCCC[C@@H]3O)c3c(F)cccc32)c(F)c1` in the records?
6.57

====

experimental.target: human M1 (Homo sapiens, UniProt P11229)
Construct: expressed in transfected cells; host or cells: CHO cells
run.description: M1 PAM assay (FLIPR intracellular calcium), human M1
Assay type: cell-based
measurement.context: CHO human M1 cells, FLIPR Ca2+, with EC20 of acetylcholine; first value of the cell; read-out: hM1 EC50
metric: log10 of EC50 (log10 of the value in nM)
Would you kindly interpret these values as log10 of EC50 expressed in nM?

> print(dat)
                                   compound         metric  readout.number
1  Cn1cc(-c2ccc(Cn3cc(C(=O)N[C@@H]4CCOC[C@H]4O)c4c(F)cccc43)c(F)c2)cn1 (single isomer, unassigned) [Example 70]  log10 of EC50            2.01
2  Cn1cc(-c2ccc(Cn3cc(C(=O)N[C@H]4CCOC[C@@H]4O)c4c(F)ccc(C5CC5)c43)c(F)c2)cn1 [Example 107]  log10 of EC50            2.68
3  COc1ccc(F)c2c(C(=O)NC3CCOCC3)cn(Cc3ccc(-c4cnn(C)c4)cc3)c12 [Example 151]  log10 of EC50            2.29
4  CNC(=O)c1ccc(Cn2cc(C(=O)NC3CCOCC3C)c3c(F)cccc32)cc1F (stereo not shown) [Example 168]  log10 of EC50            1.99

Which value of log10 of EC50 has been reported for Cn1cc(-c2ccc(Cn3cc(C(=O)N[C@H]4CCCC[C@@H]4O)c4c(F)cc(F)cc43)c(F)c2)cn1 [Example 5] in the records?
1.92

Which value of log10 of EC50 has been reported for CNC(=O)c1ccc(Cn2cc(C(=O)NC3CCCC3)c3c(F)cccc32)cc1 [Example 113] in the records?
1.53

Which value of log10 of EC50 has been reported for CNC(=O)c1ccc(Cn2cc(C(=O)NC3CCCCC3(F)F)c3c(F)cccc32)cc1F (stereo not shown) [Example 165] in the records?
1.63

====

experimental.target: human M1 (Homo sapiens)
Construct: expressed in transfected cells; host or cells: CHO cells
run.description: M1 PAM assay (FLIPR intracellular calcium), human M1
Type: cell-based
metric: EC50
A complete answer gives the number and then names the unit.

Example cases with answers are listed next.
> print(dat)
                                        smi  metric  result
1  Cc1ccc(F)c2c(C(=O)NC3CCOCC3)cn(Cc3ccc4c(cnn4C)c3)c12    EC50   25 nM
2  O=C(N[C@H]1CCCC[C@@H]1O)c1cn(Cc2ccn3ccnc3c2)c2cccc(F)c12    EC50   70 nM
3  Cn1cnc2cc(Cn3cc(C(=O)N[C@H]4CCCC[C@@H]4O)c4c(F)cccc43)ccc21    EC50  136 nM

Which value of EC50 has been reported for `O=C(N[C@H]1CCCC[C@@H]1O)c1cn(Cc2ccc3nccn3c2)c2cccc(F)c12` in the records?
17 nM

Which value of EC50 has been reported for `O=C(N[C@H]1CCCC[C@@H]1O)c1cn(Cc2ccc(OC(F)F)cc2)c2cccc(F)c12` in the records?
226 nM

Which value of EC50 has been reported for `O=C(N[C@H]1CCCC[C@@H]1O)c1cn(Cc2ccc(Cl)cc2)c2cccc(F)c12` in the records?
131 nM

Which value of EC50 has been reported for `COc1ccc(Cn2cc(C(=O)N[C@H]3CCCC[C@@H]3O)c3c(F)cccc32)cc1F` in the records?
104 nM

Which value of EC50 has been reported for `N#Cc1ccc(Cn2cc(C(=O)N[C@H]3CCCC[C@@H]3O)c3c(F)cccc32)cc1` in the records?
105 nM

====

experimental.target: human M1 (Homo sapiens)
Construct: expressed in transfected cells; host or cells: CHO cells
run.description: M1 PAM assay (FLIPR intracellular calcium), human M1
Format: cell-based
measurement.context: CHO human M1 cells, FLIPR Ca2+, with EC20 of acetylcholine; first value of the cell; read-out: hM1 EC50
metric: EC50 (µM)
Please reply with the bare figure in µM and do not write the unit itself.

> print(dat)
                                   compound      experimental.target  unit.descriptor  readout.number
1  CNC(=O)c1ccc(Cn2cc(C(=O)NC3CCCCC3)c3c(F)cccc32)cc1  human M1 (Homo sapiens)               µM           0.017
2  Cn1cc(-c2ccc(Cn3cc(CC(=O)N[C@H]4CCOC[C@@H]4O)c4c(F)cccc43)c(F)c2)cn1  human M1 (Homo sapiens)               µM           0.035
3  NC(=O)c1ccc(Cn2cc(C(=O)N[C@H]3CCOC[C@@H]3O)c3c(F)cccc32)cc1 (racemic)  human M1 (Homo sapiens)               µM          0.0124
4  Cn1cc(-c2ccc(Cn3cc(C(=O)NC4CCCOC4)c4c(F)cccc43)c(F)c2)cn1 (stereo not shown)  human M1 (Homo sapiens)               µM           0.229
5  Cn1cc(-c2ccc(Cn3cc(C(=O)N[C@H]4CCCC[C@@H]4O)c4c(F)cccc43)c(F)c2)cn1  human M1 (Homo sapiens)               µM         0.00564

Which value of EC50 has been reported for `O=C(N[C@H]1CCCC[C@@H]1O)c1cn(Cc2ccc(-c3ccn[nH]3)cc2)c2cccc(F)c12` in the records?
0.011

Which value of EC50 has been reported for `Cn1cc(-c2ccc(Cn3cc(C(=O)N[C@H]4CCCC[C@@H]4O)c4c(F)ccc(C5CC5)c43)cc2)cn1` in the records?
0.288

====

experimental.target: human M1 (Homo sapiens, UniProt P11229)
Construct: expressed in transfected cells; host or cells: CHO cells
Sequence (P11229 1-460): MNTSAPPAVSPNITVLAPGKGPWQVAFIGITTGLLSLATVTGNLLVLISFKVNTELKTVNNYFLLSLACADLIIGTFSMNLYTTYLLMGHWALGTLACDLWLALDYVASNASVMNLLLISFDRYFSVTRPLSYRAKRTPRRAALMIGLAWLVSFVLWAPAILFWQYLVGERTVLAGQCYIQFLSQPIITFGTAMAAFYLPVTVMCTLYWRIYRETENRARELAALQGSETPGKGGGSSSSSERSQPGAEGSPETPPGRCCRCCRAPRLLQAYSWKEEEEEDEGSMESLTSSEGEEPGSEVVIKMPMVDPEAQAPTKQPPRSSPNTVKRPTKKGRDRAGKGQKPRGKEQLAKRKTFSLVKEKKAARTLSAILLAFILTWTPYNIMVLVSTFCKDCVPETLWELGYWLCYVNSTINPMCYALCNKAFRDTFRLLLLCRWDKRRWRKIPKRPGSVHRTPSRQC
run.description: M1 PAM assay (FLIPR intracellular calcium), human M1
Assay type: cell-based
measurement.context: CHO human M1 cells, FLIPR Ca2+, with EC20 of acetylcholine; first value of the cell; read-out: hM1 EC50
metric: EC50
A complete answer gives the number and then names the unit.

> print(dat)
                                   compound  metric   result
1  Cc1ccn(-c2ccc(Cn3cc(C(=O)N[C@H]4CCCC[C@@H]4O)c4c(F)cccc43)cc2)n1 [Example 50]    EC50  18.3 nM
2  CNC(=O)c1ccc(Cn2cc(C(=O)NCC3CC3)c3c(F)cccc32)cc1 [Example 116]    EC50    74 nM
3  Cn1cc(-c2ccc(Cn3cc(C(=O)N[C@H]4CCCC[C@@H]4O)c4c(F)c(F)ccc43)cc2)cn1 [Example 57]    EC50   139 nM
4  CNC(=O)c1ccc(Cn2cc(CC(=O)N[C@H]3CCOC[C@@H]3O)c3c(F)cccc32)cc1 [Example 98]    EC50    32 nM
5  O=C(N[C@H]1CCCC[C@@H]1O)c1cn(Cc2ccc(N3CCCC3)cc2)c2cccc(F)c12 [Example 161]    EC50   121 nM

Which value of EC50 has been reported for Cn1cc(-c2ccc(Cn3cc(C(=O)NC4CCCCC4(F)F)c4c(F)cccc43)c(F)c2)cn1 (stereo not shown) [Example 25] in the records?
359 nM

Which value of EC50 has been reported for Cn1cc(-c2ccc(Cn3cc(C(=O)N[C@H]4CCCC[C@]4(C)O)c4c(F)cccc43)c(F)c2)cn1 (racemic) [Example 18] in the records?
61.2 nM
